# targetUnderTest: EGFR del19/C797S (Homo sapiens, UniProt P00533, C797S/DEL746-750)
# Sequence (P00533 with tags, fused parts or gaps DEL746-750/C797S): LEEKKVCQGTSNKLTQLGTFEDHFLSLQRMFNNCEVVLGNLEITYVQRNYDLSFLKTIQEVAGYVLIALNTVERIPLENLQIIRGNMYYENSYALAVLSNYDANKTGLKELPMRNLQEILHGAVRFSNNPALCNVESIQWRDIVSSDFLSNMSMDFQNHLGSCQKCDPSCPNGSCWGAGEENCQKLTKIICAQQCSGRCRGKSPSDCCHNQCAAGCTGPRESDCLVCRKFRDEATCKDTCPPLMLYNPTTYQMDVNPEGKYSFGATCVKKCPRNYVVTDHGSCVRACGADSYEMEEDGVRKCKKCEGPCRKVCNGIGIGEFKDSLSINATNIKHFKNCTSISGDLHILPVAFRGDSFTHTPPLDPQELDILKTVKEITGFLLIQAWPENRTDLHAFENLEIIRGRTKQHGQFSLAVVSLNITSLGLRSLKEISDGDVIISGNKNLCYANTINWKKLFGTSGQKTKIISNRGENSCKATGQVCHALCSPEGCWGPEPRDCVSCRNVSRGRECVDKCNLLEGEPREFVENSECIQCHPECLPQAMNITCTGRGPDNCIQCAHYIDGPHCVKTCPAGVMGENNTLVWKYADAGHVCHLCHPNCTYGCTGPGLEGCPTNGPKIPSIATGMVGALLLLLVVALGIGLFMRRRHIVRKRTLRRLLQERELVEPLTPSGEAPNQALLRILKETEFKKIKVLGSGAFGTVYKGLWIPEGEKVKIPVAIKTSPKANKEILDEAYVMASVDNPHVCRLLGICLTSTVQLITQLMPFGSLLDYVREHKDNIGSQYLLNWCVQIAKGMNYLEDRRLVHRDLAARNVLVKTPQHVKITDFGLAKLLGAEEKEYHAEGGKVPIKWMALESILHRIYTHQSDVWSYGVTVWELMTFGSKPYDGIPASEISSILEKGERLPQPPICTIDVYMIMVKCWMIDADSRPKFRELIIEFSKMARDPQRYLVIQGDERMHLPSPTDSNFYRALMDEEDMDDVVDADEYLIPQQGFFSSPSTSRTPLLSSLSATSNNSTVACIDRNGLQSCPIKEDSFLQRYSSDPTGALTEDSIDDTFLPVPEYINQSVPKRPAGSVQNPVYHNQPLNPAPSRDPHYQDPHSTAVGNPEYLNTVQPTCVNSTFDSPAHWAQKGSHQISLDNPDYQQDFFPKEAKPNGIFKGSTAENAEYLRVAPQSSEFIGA
# measurementProtocol: Biochemical EGFR kinase assay (Lance Ultra TR-FRET), double mutant del19/C797S
# conditionContext: Km ATP; read-out: IC50 del19/C797S (nM) Km ATP
observable: IC50 (nM)

- compound: "Cn1ccc(-c2cnc(Nc3ccnc(-c4cnn(S(=O)(=O)C5CC5)c4)n3)cc2N[C@H]2CC[C@H](CCO)CC2)n1"
  unitAnnotation: "nM"
  numericReadout: 0.6
- compound: "O=S(=O)(C1CC1)n1cc(-c2nccc(Nc3cc(N[C@H]4CC[C@@H](O)CC4)c(-c4ccco4)cn3)n2)cn1"
  unitAnnotation: "nM"
  numericReadout: 0.8
- compound: "CC1CC(Nc2cc(Nc3ccnc(-c4cnn(S(=O)(=O)C5CC5)c4)n3)ncc2-c2ccn(C(F)F)n2)CCC1O (stereo not shown)"
  unitAnnotation: "nM"
  numericReadout: 48.2
- compound: "Cn1ccc(-c2cnc(Nc3ccnc(-c4cnn(S(=O)(=O)C5CC5)c4)n3)cc2N[C@H]2CC[C@H](CO)CC2)n1"
  unitAnnotation: "nM"
  numericReadout: 0.4

---

# targetUnderTest: EGFR L858R/T790M/C797S (Homo sapiens, UniProt P00533, C797S/L858R/T790M)
# Sequence (P00533 25-1210 T790M/C797S/L858R): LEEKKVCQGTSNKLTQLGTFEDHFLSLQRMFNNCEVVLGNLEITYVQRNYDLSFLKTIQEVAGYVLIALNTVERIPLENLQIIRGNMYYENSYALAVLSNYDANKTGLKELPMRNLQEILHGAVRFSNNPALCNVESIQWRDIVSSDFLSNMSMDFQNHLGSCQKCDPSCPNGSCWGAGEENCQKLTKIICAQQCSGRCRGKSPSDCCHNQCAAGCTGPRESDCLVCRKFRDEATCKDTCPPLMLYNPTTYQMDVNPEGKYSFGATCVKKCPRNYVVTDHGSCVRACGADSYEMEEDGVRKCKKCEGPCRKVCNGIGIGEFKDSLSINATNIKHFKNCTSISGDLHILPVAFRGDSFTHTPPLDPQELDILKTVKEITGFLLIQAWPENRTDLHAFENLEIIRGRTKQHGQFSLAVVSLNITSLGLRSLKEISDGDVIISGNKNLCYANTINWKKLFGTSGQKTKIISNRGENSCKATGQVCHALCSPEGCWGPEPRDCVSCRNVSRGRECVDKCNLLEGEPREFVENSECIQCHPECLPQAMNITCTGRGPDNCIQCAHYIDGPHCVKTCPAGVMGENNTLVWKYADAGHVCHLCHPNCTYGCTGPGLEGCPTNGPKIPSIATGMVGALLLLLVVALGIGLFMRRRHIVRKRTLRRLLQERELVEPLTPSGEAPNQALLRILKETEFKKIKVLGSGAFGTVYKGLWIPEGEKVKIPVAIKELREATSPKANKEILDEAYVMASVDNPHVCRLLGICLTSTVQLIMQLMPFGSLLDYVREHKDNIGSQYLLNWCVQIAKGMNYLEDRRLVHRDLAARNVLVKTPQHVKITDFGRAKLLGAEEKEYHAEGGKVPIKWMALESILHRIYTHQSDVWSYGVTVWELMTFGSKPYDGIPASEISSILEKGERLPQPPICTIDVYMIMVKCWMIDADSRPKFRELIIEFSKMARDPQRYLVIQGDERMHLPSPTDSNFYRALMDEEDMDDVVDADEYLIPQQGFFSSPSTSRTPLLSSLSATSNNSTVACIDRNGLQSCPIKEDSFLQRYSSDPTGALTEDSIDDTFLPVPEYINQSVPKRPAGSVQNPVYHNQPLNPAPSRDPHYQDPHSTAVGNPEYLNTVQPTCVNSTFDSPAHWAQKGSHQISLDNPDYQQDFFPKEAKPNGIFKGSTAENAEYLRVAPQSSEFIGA
# measurementProtocol: Biochemical EGFR kinase assay (Lance Ultra TR-FRET), triple mutant L858R/T790M/C797S
# conditionContext: IC50 L858R/T790M/C797S (nM) 100 μM ATP, 100 μM ATP
observable: log10 IC50 (log10 of the value in nM)

- molecule: "CN(C)CCCn1ccc(-c2cnc(Nc3ccnc(-c4cnn(S(=O)(=O)C5CC5)c4)n3)cc2NCC2(CO)COC2)n1 [Example 279]"
  targetUnderTest: "EGFR L858R/T790M/C797S (Homo sapiens, UniProt P00533, C797S/L858R/T790M)"
  numericReadout: -0.40
- molecule: "O=S(=O)(C1CC1)n1cc(-c2nccc(Nc3cc(N[C@H]4CC[C@@H](O)CC4)c(-c4ccco4)cn3)n2)cn1 [Example 83]"
  targetUnderTest: "EGFR L858R/T790M/C797S (Homo sapiens, UniProt P00533, C797S/L858R/T790M)"
  numericReadout: -0.15
- molecule: "O=S(=O)(C1CC1)n1cc(-c2nccc(Nc3cc(NC4CCC5(CC4)CNC5)c(-c4ccn(C(F)F)n4)cn3)n2)cn1 [Example 27]"
  targetUnderTest: "EGFR L858R/T790M/C797S (Homo sapiens, UniProt P00533, C797S/L858R/T790M)"
  numericReadout: -0.40
- molecule: "Cn1nc(-c2cnc(Nc3ccnc(-c4cnn(S(=O)(=O)C5CC5)c4)n3)cc2N[C@H]2CC[C@@](C)(O)CC2)cc1C(C)(C)O [Example 293]"
  targetUnderTest: "EGFR L858R/T790M/C797S (Homo sapiens, UniProt P00533, C797S/L858R/T790M)"
  numericReadout: -0.40
- molecule: "Cc1ncc(-c2cnc(Nc3ccnc(-c4cnn(S(=O)(=O)C5CC5)c4)n3)cc2N[C@H]2CC[C@@H](O)CC2)s1 [Example 75]"
  targetUnderTest: "EGFR L858R/T790M/C797S (Homo sapiens, UniProt P00533, C797S/L858R/T790M)"
  numericReadout: 1.23
- molecule: "COCCn1cc(-c2nccc(Nc3cc(N[C@H]4CC[C@@](C)(O)CC4)c(-c4ccn(C(F)F)n4)cn3)n2)cn1 [Example 138]"
  targetUnderTest: "EGFR L858R/T790M/C797S (Homo sapiens, UniProt P00533, C797S/L858R/T790M)"
  numericReadout: -0.10
- molecule: "O=S(=O)(C1CC1)n1cc(-c2nccc(Nc3cc(NC4CCC(O)C4)c(-c4ccn(C(F)F)n4)cn3)n2)cn1 (stereo not shown) [Example 15]"
  targetUnderTest: "EGFR L858R/T790M/C797S (Homo sapiens, UniProt P00533, C797S/L858R/T790M)"
  numericReadout: -0.05

---

# targetUnderTest: EGFR L858R/T790M/C797S (Homo sapiens, UniProt P00533, C797S/L858R/T790M)
# measurementProtocol: Biochemical EGFR kinase assay (Lance Ultra TR-FRET), triple mutant L858R/T790M/C797S
# conditionContext: IC50 L858R/T790M/C797S (nM) 100 μM ATP, 100 μM ATP
observable: log10 of IC50 (log10 of the value in nM)

- compound: "CC(C)(O)[C@H]1CC[C@@H](Nc2cc(Nc3ccnc(-c4cnn(S(=O)(=O)C5CC5)c4)n3)ncc2-c2ccn(CC(F)(F)F)n2)CC1"
  observable: "log10 of IC50"
  numericReadout: 0.87
- compound: "C[C@]1(O)CC[C@H](CNc2cc(Nc3ccnc(-c4cnn(S(=O)(=O)C5CC5)c4)n3)ncc2-c2ccn(C(F)F)n2)CC1"
  observable: "log10 of IC50"
  numericReadout: 0.08
- compound: "COCn1cc(-c2nccc(Nc3cc(N[C@H]4CC[C@@](C)(O)CC4)c(-c4ccn(C(F)F)n4)cn3)n2)cn1"
  observable: "log10 of IC50"
  numericReadout: 1.28
- compound: "O=S(=O)(C1CC1)n1cc(-c2nccc(Nc3cc(N[C@H]4CC[C@H](CCO)CC4)c(-c4ccn(CC(F)(F)F)n4)cn3)n2)cn1"
  observable: "log10 of IC50"
  numericReadout: 0.08
- compound: "O=S(=O)(C1CC1)n1cc(-c2nccc(Nc3cc(N[C@H]4CC[C@@H](CO)CC4)c(-c4ccn(C5COC5)n4)cn3)n2)cn1"
  observable: "log10 of IC50"
  numericReadout: -0.52
- compound: "Cn1ccc(-c2cnc(Nc3ccnc(-c4cnn(S(=O)(=O)C5CC5)c4)n3)cc2N[C@H]2CC[C@@H](NCC(F)F)CC2)n1"
  observable: "log10 of IC50"
  numericReadout: -0.70
- compound: "Cn1ccc(-c2cnc(Nc3ccnc(-c4cnn(S(=O)(=O)C5CC5)c4)n3)cc2NC[C@H]2CC[C@H](NCC(F)F)CC2)n1"
  observable: "log10 of IC50"
  numericReadout: -0.15
- compound: "C[C@]1(O)CC[C@@H](Nc2cc(Nc3ccnc(-c4cnn(CC(F)F)c4)n3)ncc2-c2ccn(C(F)F)n2)CC1"
  observable: "log10 of IC50"
  numericReadout: -0.70
- compound: "O=S(=O)(C1CC1)n1cc(-c2nccc(Nc3cc(N[C@H]4CC[C@@H](NCC(F)F)CC4)c(-c4csc(C(F)(F)F)n4)cn3)n2)cn1"
  observable: "log10 of IC50"
  numericReadout: 1.05
- compound: "CN(C)C(=O)[C@H]1CC[C@@H](Nc2cc(Nc3ccnc(-c4cnn(S(=O)(=O)C5CC5)c4)n3)ncc2-c2ccn(C)n2)CC1"
  observable: "log10 of IC50"
  numericReadout: -0.40
- compound: "CN(C)C[C@H]1CC[C@@H](Nc2cc(Nc3ccnc(-c4cnn(S(=O)(=O)C5CC5)c4)n3)ncc2-c2ccn(C(F)F)n2)CC1"
  observable: "log10 of IC50"
  numericReadout: -1.00
- compound: "O=S(=O)(C1CC1)n1cc(-c2nccc(Nc3cc(N[C@H]4CC[C@@H](CCO)CC4)c(-c4ccn(C(F)F)n4)cn3)n2)cn1"
  observable: "log10 of IC50"
  numericReadout: 0.32
- compound: "CN(C)C(=O)[C@H]1CC[C@@H](Nc2cc(Nc3ccnc(-c4cnn(S(=O)(=O)C5CC5)c4)n3)ncc2-c2cc(C(F)(F)F)n(C)n2)CC1"
  observable: "log10 of IC50"
  numericReadout: 0.20
- compound: "CN(C)C[C@H]1CC[C@H](CNc2cc(Nc3ccnc(-c4cnn(S(=O)(=O)C5CC5)c4)n3)ncc2-c2ccn(C(F)F)n2)CC1"
  observable: "log10 of IC50"
  numericReadout: -0.30
- compound: "O=S(=O)(C1CC1)n1cc(-c2nccc(Nc3cc(NC[C@H]4C[C@H](O)C4)c(-c4ccn(C(F)F)n4)cn3)n2)cn1"
  observable: "log10 of IC50"
  numericReadout: 0.20
- compound: "O=S(=O)(C1CC1)n1cc(-c2nccc(Nc3cc(NCCCn4ccnc4)c(-c4ccn(C(F)F)n4)cn3)n2)cn1"
  observable: "log10 of IC50"
  numericReadout: 0.83
- compound: "CN(C)CC1(C)CCC(Nc2cc(Nc3ccnc(-c4cnn(S(=O)(=O)C5CC5)c4)n3)ncc2-c2ccn(C)n2)CC1 (stereo not shown)"
  observable: "log10 of IC50"
  numericReadout: -0.22
- compound: "O=S(=O)(C1CC1)n1cc(-c2nccc(Nc3cc(N[C@H]4CC[C@](O)(CO)CC4)c(-c4cc5n(n4)CCCC5)cn3)n2)cn1"
  observable: "log10 of IC50"
  numericReadout: -0.30
- compound: "CN(CC(F)F)C(=O)[C@H]1CC[C@@H](Nc2cc(Nc3ccnc(-c4cnn(S(=O)(=O)C5CC5)c4)n3)ncc2-c2ccn(C)n2)CC1"
  observable: "log10 of IC50"
  numericReadout: -0.70
- compound: "Cn1nc(-c2cnc(Nc3ccnc(-c4cnn(S(=O)(=O)C5CC5)c4)n3)cc2N[C@H]2CC[C@@H](C(C)(C)O)CC2)cc1C(F)(F)F"
  observable: "log10 of IC50"
  numericReadout: 0.81
- compound: "Cn1ccc(-c2cnc(Nc3ccnc(-c4cnn(S(=O)(=O)C5CC5)c4)n3)cc2NCC2(C)CCC(O)CC2)n1 (stereo not shown)"
  observable: "log10 of IC50"
  numericReadout: 0.26
- compound: "O=S(=O)(C1CC1)n1cc(-c2nccc(Nc3cc(NC[C@H]4CC[C@@H](O)C4)c(-c4ccn(C(F)F)n4)cn3)n2)cn1"
  observable: "log10 of IC50"
  numericReadout: -0.22
- compound: "Cn1nc(-c2cnc(Nc3ccnc(-c4cnn(S(=O)(=O)C5CC5)c4)n3)cc2N[C@H]2CC[C@H](CCO)CC2)cc1C(F)(F)F"
  observable: "log10 of IC50"
  numericReadout: 1.06
- compound: "O=S(=O)(C1CC1)n1cc(-c2nccc(Nc3cc(NC4CCC(F)(CO)CC4)c(-c4cc5n(n4)CCCC5)cn3)n2)cn1 (stereo not shown)"
  observable: "log10 of IC50"
  numericReadout: -0.05
- compound: "O=S(=O)(C1CC1)n1cc(-c2nccc(Nc3cc(OC4CCC(O)C4)c(-c4ccn(C(F)F)n4)cn3)n2)cn1 (stereo not shown)"
  observable: "log10 of IC50"
  numericReadout: 1.20

Measured values drawn from patent US12258327B2 for this set.
